Measured values drawn from the supplement of paper PMC8617591 for this set.

System: Mycobacterium tuberculosis Erdman (autoluminescent)
Test description: AUC25, normalised area under dose response up to IC25 (three-drug combination) (fraction (0-1)); higher = more potent at low dose
Measurement conditions: in vitro model: valerate; time point: constant (~7 days, model-specific)
Label Fulfilled when AUC25 >= 0.1; otherwise Not fulfilled.

Worked examples, 2 compounds total:
Quick check, AUC25 >= 0.1? NNC(=O)c1ccncc1 [isoniazid] + O=[N+]([O-])c1cn2c(n1)OC[C@@H](OCc1ccc(OC(F)(F)F)cc1)C2 [pretomanid] + NC(=O)c1cnccn1 [pyrazinamide]
Fulfilled

Then what about the compound COc1nc2ccc(Br)cc2cc1[C@@H](c1ccccc1)[C@@](O)(CCN(C)C)c1cccc2ccccc12 [bedaquiline] + O=[N+]([O-])c1cn2c(n1)OC[C@@H](OCc1ccc(OC(F)(F)F)cc1)C2 [pretomanid] + CO[C@H]1/C=C/O[C@@]2(C)Oc3c(C)c(O)c4c(O)c(c(/C=N/N5CCN(C6CCCC6)CC5)c(O)c4c3C2=O)NC(=O)/C(C)=C\C=C\[C@H](C)[C@H](O)[C@@H](C)[C@@H](O)[C@@H](C)[C@H](OC(C)=O)[C@@H]1C [rifapentine] ?
Not fulfilled

Turning now to a further record.
Quick check, AUC25 >= 0.1? COc1nc2ccc(Br)cc2cc1[C@@H](c1ccccc1)[C@@](O)(CCN(C)C)c1cccc2ccccc12 [bedaquiline] + NNC(=O)c1ccncc1 [isoniazid] + O=[N+]([O-])c1cn2c(n1)OC[C@@H](OCc1ccc(OC(F)(F)F)cc1)C2 [pretomanid]
Fulfilled

* * *

Each entry below carries its reported FIC50.
System: Mycobacterium tuberculosis Erdman (autoluminescent)
Test description: FIC50 (Loewe) at 50% inhibition (log2); higher = more antagonistic
Measurement conditions: in vitro model: acidic pH 5.7; time point: constant (~7 days, model-specific)
# output: bare number, no unit

Form entry - test system: Mycobacterium tuberculosis Erdman (autoluminescent); read-out: FIC50; molecule: CC(C)/N=c1\cc2n(-c3ccc(Cl)cc3)c3ccccc3nc-2cc1Nc1ccc(Cl)cc1 [clofazimine] + CO[C@H]1/C=C/O[C@@]2(C)Oc3c(C)c(O)c4c(O)c(c(/C=N/N5CCN(C)CC5)c(O)c4c3C2=O)NC(=O)/C(C)=C\C=C\[C@H](C)[C@H](O)[C@@H](C)[C@@H](O)[C@@H](C)[C@H](OC(C)=O)[C@@H]1C [rifampicin]
-0.0436

Then what about the molecule NNC(=O)c1ccncc1 [isoniazid] + NC(=O)c1cnccn1 [pyrazinamide] ?
-0.176

Then what about the molecule NNC(=O)c1ccncc1 [isoniazid] + CC(=O)NC[C@H]1CN(c2ccc(N3CCOCC3)c(F)c2)C(=O)O1 [linezolid] ?
0.0411

Then what about the molecule NC(=O)c1cnccn1 [pyrazinamide] + CO[C@H]1/C=C/O[C@@]2(C)Oc3c(C)c(O)c4c(O)c(c(/C=N/N5CCN(C)CC5)c(O)c4c3C2=O)NC(=O)/C(C)=C\C=C\[C@H](C)[C@H](O)[C@@H](C)[C@@H](O)[C@@H](C)[C@H](OC(C)=O)[C@@H]1C [rifampicin] ?
-0.484

Then what about the molecule NNC(=O)c1ccncc1 [isoniazid] + O=[N+]([O-])c1cn2c(n1)OC[C@@H](OCc1ccc(OC(F)(F)F)cc1)C2 [pretomanid] ?
0.312

Then what about the molecule CO[C@H]1/C=C/O[C@@]2(C)Oc3c(C)c(O)c4c(O)c(c(/C=N/N5CCN(C6CCCC6)CC5)c(O)c4c3C2=O)NC(=O)/C(C)=C\C=C\[C@H](C)[C@H](O)[C@@H](C)[C@@H](O)[C@@H](C)[C@H](OC(C)=O)[C@@H]1C [rifapentine] + CO[C@H]1/C=C/O[C@@]2(C)Oc3c(C)c(O)c4c(O)c(c(/C=N/N5CCN(C)CC5)c(O)c4c3C2=O)NC(=O)/C(C)=C\C=C\[C@H](C)[C@H](O)[C@@H](C)[C@@H](O)[C@@H](C)[C@H](OC(C)=O)[C@@H]1C ?
0.179

With those in mind, consider the next molecule.
Form entry - test system: Mycobacterium tuberculosis Erdman (autoluminescent); read-out: FIC50; molecule: COc1nc2ccc(Br)cc2cc1[C@@H](c1ccccc1)[C@@](O)(CCN(C)C)c1cccc2ccccc12 [bedaquiline] + CO[C@H]1/C=C/O[C@@]2(C)Oc3c(C)c(O)c4c(O)c(c(/C=N/N5CCN(C6CCCC6)CC5)c(O)c4c3C2=O)NC(=O)/C(C)=C\C=C\[C@H](C)[C@H](O)[C@@H](C)[C@@H](O)[C@@H](C)[C@H](OC(C)=O)[C@@H]1C
0.322
